- tgt: Prostaglandin E synthase (Homo sapiens)
- Sequence (O14684 whole entry): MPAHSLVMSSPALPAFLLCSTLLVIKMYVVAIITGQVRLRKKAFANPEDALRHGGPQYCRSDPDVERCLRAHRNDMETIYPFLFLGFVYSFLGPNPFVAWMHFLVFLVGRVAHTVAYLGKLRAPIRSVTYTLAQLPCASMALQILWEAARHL
- measurement.notes: Inhibition of mPGES-1 in microsomal membranes isolated from IL-1beta-stimulated human A549 cells preincubated for 15 mins followed by PGH2 addition measured after 1 mins by RP-HPLC analysis
pIC50: −log10 of the molar value.
parameter: pIC50

INSERT INTO results (smiles_text, data_value) VALUES
  ('CCOC(=O)c1c(-c2ccccc2OC)[nH]c2c1cc(O)c1ccccc12', 5.07),
  ('CCOC(=O)c1c(-c2cc(C)cc(C)c2)[nH]c2c1cc(O)c1ccccc12', 5.15),
  ('CCOC(=O)c1c(-c2ccccc2Br)[nH]c2c1cc(O)c1ccccc12', 5.60),
  ('CCOC(=O)c1c(-c2cccc(Br)c2)[nH]c2c1cc(O)c1ccccc12', 5.92);

====

Listed molecules paired with reported IC50
- tgt: Polyunsaturated fatty acid 5-lipoxygenase (Homo sapiens, UniProt P09917)
- Sequence (P09917 whole entry): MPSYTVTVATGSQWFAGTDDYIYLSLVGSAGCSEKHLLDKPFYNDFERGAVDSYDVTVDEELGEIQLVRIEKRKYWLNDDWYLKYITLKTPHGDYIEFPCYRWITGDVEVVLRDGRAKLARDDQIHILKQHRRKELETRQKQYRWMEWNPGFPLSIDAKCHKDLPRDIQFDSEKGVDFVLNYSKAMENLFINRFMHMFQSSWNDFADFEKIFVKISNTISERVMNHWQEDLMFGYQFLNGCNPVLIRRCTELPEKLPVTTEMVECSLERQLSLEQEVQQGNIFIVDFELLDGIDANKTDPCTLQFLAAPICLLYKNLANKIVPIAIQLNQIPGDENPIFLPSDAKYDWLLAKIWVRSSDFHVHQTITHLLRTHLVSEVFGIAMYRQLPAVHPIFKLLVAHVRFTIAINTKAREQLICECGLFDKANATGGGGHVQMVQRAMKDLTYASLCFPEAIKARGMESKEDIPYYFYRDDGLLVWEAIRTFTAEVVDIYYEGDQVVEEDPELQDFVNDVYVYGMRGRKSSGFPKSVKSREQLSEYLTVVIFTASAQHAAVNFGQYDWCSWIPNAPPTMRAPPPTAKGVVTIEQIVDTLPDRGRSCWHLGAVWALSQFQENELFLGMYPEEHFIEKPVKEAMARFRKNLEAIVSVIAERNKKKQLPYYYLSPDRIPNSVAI
- measurement.notes: Inhibition of recombinant human 5-LO expressed in Escherichia coli BL21 using arachidonic acid as substrate preincubated for 15 mins followed by substrate addition measured after 10 mins by RP-HPLC analysis
parameter: IC50 (nM)

INSERT INTO results (smiles_text, data_value) VALUES
  ('CCOC(=O)c1c(-c2cc(C)cc(C)c2)[nH]c2c1cc(O)c1ccccc12', 120),
  ('CCOC(=O)c1c(-c2cc(Br)ccc2F)[nH]c2c1cc(O)c1ccccc12', 110),
  ('CCOC(=O)c1c(-c2ccccc2F)oc2c1cc(O)c1ccccc12', 370);

====

- tgt: Polyunsaturated fatty acid 5-lipoxygenase (Homo sapiens, UniProt P09917)
- measurement.notes: Inhibition of recombinant human 5-LO expressed in Escherichia coli BL21 using arachidonic acid as substrate preincubated for 15 mins followed by substrate addition measured after 10 mins by RP-HPLC analysis
Listed compounds paired with reported IC50
parameter: IC50 (µM)

INSERT INTO assay_data (smiles_text, parameter, data_value) VALUES
  ('CCOC(=O)c1c(-c2ccc(Br)cc2F)[nH]c2c1cc(O)c1ccccc12', 'IC50', 0.27),
  ('CCOC(=O)c1c(-c2ccc(Cl)c(Cl)c2)oc2c1cc(O)c1ccccc12', 'IC50', 1.7),
  ('CCOC(=O)c1c(-c2ccccc2Cl)oc2c1cc(O)c1ccccc12', 'IC50', 0.37),
  ('CCOC(=O)c1c(Cc2c(F)cccc2F)[nH]c2c1cc(O)c1ccccc12', 'IC50', 0.169),
  ('CCOC(=O)c1c(-c2ccccc2Br)[nH]c2c1cc(O)c1ccccc12', 'IC50', 0.16),
  ('CCOC(=O)c1c(-c2ccccc2F)[nH]c2c1cc(O)c1ccccc12', 'IC50', 0.1),
  ('CCOC(=O)c1c(-c2ccccc2Cl)[nH]c2c1cc(O)c1ccccc12', 'IC50', 0.13),
  ('CCOC(=O)c1c(-c2cccc(Br)c2)[nH]c2c1cc(O)c1ccccc12', 'IC50', 0.13),
  ('CCOC(=O)c1c(-c2ccccc2Br)oc2c1cc(O)c1ccccc12', 'IC50', 0.16),
  ('CCOC(=O)c1c(-c2ccc(Cl)cc2)oc2c1cc(O)c1ccccc12', 'IC50', 0.13);
